Biological target: recombinant human NF-kappaB-inducing kinase (NIK/MAP3K14) (Homo sapiens (Human), UniProt Q99558)
Sequence (Q99558 whole entry): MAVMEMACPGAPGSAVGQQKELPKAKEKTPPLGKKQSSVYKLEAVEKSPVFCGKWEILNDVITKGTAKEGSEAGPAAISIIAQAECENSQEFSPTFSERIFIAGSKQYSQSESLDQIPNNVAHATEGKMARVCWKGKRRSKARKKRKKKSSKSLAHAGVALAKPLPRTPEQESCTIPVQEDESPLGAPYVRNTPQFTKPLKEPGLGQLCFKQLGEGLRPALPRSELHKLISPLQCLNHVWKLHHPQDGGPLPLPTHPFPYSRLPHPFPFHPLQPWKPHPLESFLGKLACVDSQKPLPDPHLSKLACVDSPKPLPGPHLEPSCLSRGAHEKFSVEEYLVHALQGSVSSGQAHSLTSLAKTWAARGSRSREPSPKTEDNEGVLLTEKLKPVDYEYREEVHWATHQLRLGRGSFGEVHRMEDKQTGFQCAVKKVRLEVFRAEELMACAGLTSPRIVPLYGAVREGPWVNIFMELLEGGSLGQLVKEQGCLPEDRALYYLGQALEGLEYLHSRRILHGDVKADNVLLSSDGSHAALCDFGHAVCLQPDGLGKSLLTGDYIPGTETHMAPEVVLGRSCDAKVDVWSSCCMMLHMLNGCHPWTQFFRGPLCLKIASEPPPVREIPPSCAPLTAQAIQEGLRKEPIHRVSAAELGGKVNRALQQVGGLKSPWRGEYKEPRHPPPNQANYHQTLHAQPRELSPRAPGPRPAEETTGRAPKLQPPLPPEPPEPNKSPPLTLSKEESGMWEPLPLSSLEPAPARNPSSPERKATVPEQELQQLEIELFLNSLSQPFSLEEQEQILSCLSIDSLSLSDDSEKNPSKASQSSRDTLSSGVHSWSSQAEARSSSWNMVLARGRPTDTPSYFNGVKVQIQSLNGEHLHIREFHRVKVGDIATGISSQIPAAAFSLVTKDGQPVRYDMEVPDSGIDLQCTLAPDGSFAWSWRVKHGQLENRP
Assay: Inhibition of auto-phosphorylation of recombinant human NIK/MAP3K14 (AlphaScreen)
Details: NIK auto-phosphorylation, 5 μM ATP, 1 nM NIK, 2 h at 25° C.; average of values
pIC50: −log10 of the molar value.
reportedEndpoint: pIC50

Answered cases to consult:
| compound | pIC50 |
| --- | --- |
| Cc1nccc2ccc(-c3cccc(C#C[C@]4(O)CCN(C)C4=O)c3)nc12 [Example 280] | 7.35 |
| Cc1nc(N)c2nc(-c3cccc(C#C[C@]4(O)CCN(C)C4=O)c3)cnc2n1 [Example 148] | 8.85 |
| CN1CC[C@@](O)(C#Cc2cccc(-c3ccc4ncnc(N(C)C)c4n3)c2)C1=O [Example 25] | 8.68 |
| Cc1nc(N)c2nc(-c3cccc(C#C[C@]4(O)CCN(C)C4=O)c3)ccc2n1 [Example 6] | 9.22 |
| CN1CC[C@@](O)(C#Cc2cccc(-c3ccc4nc(N)nc(N)c4n3)c2)C1=O [Example 203] | 8.92 |

1 = CN1CC[C@@](O)(C#Cc2cccc(-c3nc(C(F)(F)F)c4ccnc(N)c4n3)c2)C1=O [Example 38]
2 = CN1CC[C@@](O)(C#Cc2cccc(-c3ccc4nc[nH]c(=O)c4n3)c2)C1=O [Example 221]
3 = Cc1nc(N)c2nc(-c3cccc(C#C[C@](C)(O)c4ncccn4)c3)ccc2n1 [Example 198]
4 = CN1CC[C@@](O)(C#Cc2cccc(-c3cc4c(N)ncnc4cn3)c2)C1=O [Example 111]
5 = Cc1nc(N)c2nc(-c3cccc(C#C[C@@]4(O)C(=O)N(C)C[C@H]4C)c3)ccc2n1 (stereo in doubt) [Example 292]
List from greatest to least pIC50. Your answer should be the labels, listed in the requested order.
1, 4, 5, 2, 3

* * *

Molecular target: recombinant human NF-kappaB-inducing kinase (NIK/MAP3K14) (Homo sapiens (Human), UniProt Q99558)
Test: Inhibition of auto-phosphorylation of recombinant human NIK/MAP3K14 (AlphaScreen)
Assay type: biochemical
Conditions: NIK auto-phosphorylation, 5 μM ATP, 1 nM NIK, 2 h at 25° C.; average of values
reportedEndpoint: IC50 (nM)

Answered cases to consult:
| compound | IC50 (nM) |
| --- | --- |
| CN1CCC(O)(C#Cc2cccc(-c3ncc4ccnc(N5CCC5)c4n3)c2)C1=O (stereo in doubt) | 3340 |
| CN1CC[C@@](O)(C#Cc2cccc(-c3ccc4c(CN5CCCC5)cnc(N)c4n3)c2)C1=O | 4 |
| CCOc1ncnc2ccc(-c3cccc(C#C[C@]4(O)CCN(C)C4=O)c3)nc12 | 260 |
| C[C@@](O)(C#Cc1cccc(-c2ccc3ncnc(N)c3c2)c1)c1nccs1 | 0.6 |
| [2H]c1nc(N)c2nc(-c3cccc(C#C[C@]4(O)C(=O)N(C)[C@H]5C[C@H]54)c3)ccc2n1 | 300 |

a = [2H]C([2H])([2H])N1CC[C@@](O)(C#Cc2ccc(C)c(-c3ccc4ccnc(N)c4c3)c2)C1=O [Example 70]
b = CN1CC[C@@](O)(C#Cc2cccc(-c3cnc4ncnc(N)c4c3)c2)C1=O
c = CC1(C)CC[C@](O)(C#Cc2cccc(-c3ccc4ncnc(N)c4n3)c2)C1=O
d = CC(C)Cc1cnc(N)c2nc(-c3cccc(C#C[C@]4(O)CCN(C)C4=O)c3)ncc12
List from greatest to least IC50. Your answer should be the labels, listed in the requested order.
c, a, b, d
(c: 46 nM, a: 26 nM, b: 13 nM, d: 0.7 nM)

I = Cc1nc(N)c2nc(-c3cccc(C#C[C@@]4(O)C(=O)N(C)C[C@@H]4C)c3)ccc2n1 (stereo in doubt)
II = CN1CC[C@@](O)(C#Cc2cccc(-c3cc(C4CCOCC4)c4ncnc(N)c4n3)c2)C1=O
III = Cc1nc(N)c2c(n1)CCN(c1cccc(C#C[C@]3(O)CCN(C)C3=O)c1)C2
IV = CN1CC[C@](O)(C#Cc2cccc(-c3ncc4cc[nH]c(=O)c4n3)c2)C1=O
V = Cc1cc([C@](C)(O)C#Cc2cccc(-c3ccc4ncnc(N)c4c3)c2)no1
Let's sort these by IC50, smallest first. Go ahead? Your answer should be the labels, listed in the requested order.
II, V, III, IV, I

* * *

Molecular target: recombinant human NF-kappaB-inducing kinase (NIK/MAP3K14) (Homo sapiens (Human))
Test: Inhibition of auto-phosphorylation of recombinant human NIK/MAP3K14 (AlphaScreen)
Details: NIK auto-phosphorylation, 5 μM ATP, 1 nM NIK, 2 h at 25° C.; average of values
reportedEndpoint: IC50 (nM)

| compound | IC50 (nM) |
| --- | --- |
| C[C@@](O)(C#Cc1cccc(-c2nc(C(F)(F)F)c3ccnc(N)c3n2)c1)c1nccs1 [Example 49] | 2.5 |

P = CNc1nc(-c2cccc(C#C[C@]3(O)CCN(C)C3=O)c2)nc2c(N)nccc12 [Example 85]
Q = Cc1nc(N)c2nc(-c3cccc(C#C[C@]4(O)C(=O)N(C)C[C@H]4C)c3)ccc2n1 (stereo in doubt) [Example 294]
R = CN1CC[C@@](O)(C#Cc2cccc(-c3ccc4ncnc(N5CC(C)(C)C5)c4n3)c2)C1=O [Example 226]
List from greatest to least IC50. Your answer should be the labels, listed in the requested order.
Q, R, P
(Q: 390 nM, R: 42 nM, P: 0.7 nM)

a = Cc1nc(N)c2nc(-c3cccc(C#C[C@@](C)(O)c4scnc4C)c3)ccc2n1 [Example 163]
b = CC(C)c1nc(-c2cccc(C#C[C@]3(O)CCN(C)C3=O)c2)nc2c(N)nccc12 [Example 98]
API: POST /compare with a and b ; response names the item with higher IC50. I would appreciate it if you answered with the label of your choice.
a
(a: 350 nM, b: 1.5 nM)

* * *

Target: recombinant human NF-kappaB-inducing kinase (NIK/MAP3K14) (Homo sapiens (Human), UniProt Q99558)
Test: Inhibition of auto-phosphorylation of recombinant human NIK/MAP3K14 (AlphaScreen)
Conditions: NIK auto-phosphorylation, 5 μM ATP, 1 nM NIK, 2 h at 25° C.; average of values
reportedEndpoint: IC50 (nM)

a = C=CCN1CCC(O)(C#Cc2cccc(-c3ccc4nc(C)nc(N)c4n3)c2)C1=O (racemic)
b = CC(C)Cc1ccc(C#C[C@]2(O)CCN(C)C2=O)cc1-c1ncc2ccnc(N)c2n1
c = CN1CC[C@@](O)(C#Cc2ccc(OC(F)(F)F)c(-c3ccc4ncnc(N)c4n3)c2)C1=O
Sequence the entries by IC50, beginning with the highest number. Your answer should be the labels, listed in the requested order.
a, b, c
(a: 21 nM, b: 10 nM, c: 4.2 nM)

* * *

Biological target: recombinant human NF-kappaB-inducing kinase (NIK/MAP3K14) (Homo sapiens (Human), UniProt Q99558)
Experiment: Inhibition of auto-phosphorylation of recombinant human NIK/MAP3K14 (AlphaScreen)
Settings: NIK auto-phosphorylation, 5 μM ATP, 1 nM NIK, 2 h at 25° C.; average of values
Description: Inhibition of auto-phosphorylation of recombinant human NF-kappaB-inducing kinase (NIK/MAP3K14) activity (AlphaScreen®) NIK/MAP3K14 auto-phosphorylation activity was measured using the AlphaScreen® (αscreen) format (Perkin Elmer). […] Protein A Acceptor and Glutathione-Donor beads were added before reading using an EnVision® Multilabel Plate Reader (Perkin Elmer). […] IC50's were determined by fitting a sigmoidal curve to % inhibition of control versus Log10 compound concentration.
pIC50: −log10 of the molar value.
reportedEndpoint: pIC50

| compoundString | pIC50 |
| --- | --- |
| CN1CC[C@@](O)(C#Cc2cccc(-c3ccc4nc(C5CC5)nc(N)c4n3)c2)C1=O | 8.62 |
| Cc1cc2cnc(-c3cccc(C#C[C@]4(O)CCN(C)C4=O)c3)nc2c(N)n1 | 7.37 |
| COCc1nc(N)c2nc(-c3cccc(C#C[C@]4(O)CCN(C)C4=O)c3)ccc2n1 | 8.46 |
| Cc1ccc(C#C[C@@]2(O)CCN(C)C2=O)cc1-c1nc2c(N)ncnc2s1 | 7.08 |
| Cc1nnc([C@](C)(O)C#Cc2cccc(-c3ccc4ncnc(N)c4n3)c2)o1 | 9.10 |
| CN1CC[C@@](O)(C#Cc2cccc(-c3nc4ncnc(N)c4s3)c2)C1=O | 6.49 |
| Cc1cc2ncnc(N)c2nc1-c1cccc(C#C[C@]2(O)CCN(C)C2=O)c1 | 8.74 |
| [2H]c1nc(N)c2nc(-c3cccc(C#C[C@]4(O)CCN(C)C4=O)c3)nc(C)c2n1 | 8.66 |

a = Cc1nnc([C@](C)(O)C#Cc2cccc(-c3ccc4ncnc(N)c4c3)c2)o1
b = CN1CC[C@@](O)(C#Cc2cccc(-c3ccc4[nH]nc(N)c4c3)c2)C1=O
API: POST /compare with a and b ; response names the item with higher pIC50. I would appreciate it if you answered with the label of your choice.
a
(a: 7.85, b: 6.08)

I = CN1CC[C@@](O)(C#Cc2cccc(-c3cc4c(N)ncnc4s3)c2)C1=O
II = CN1CC[C@@](O)(C#Cc2cccc(-c3cc(-c4ccco4)c4ncnc(N)c4n3)c2)C1=O
III = CN1CC[C@](O)(C#Cc2cccc(-c3cc(C4CCOCC4)c4ncnc(N)c4n3)c2)C1=O
IV = Cc1ncnc2ccc(-c3cccc(C#C[C@]4(O)CCN(C)C4=O)c3)nc12
V = Cc1nnc([C@](C)(O)C#Cc2ccc(C)c(-c3ccc4ccnc(N)c4c3)c2)o1
List from greatest to least pIC50. Your answer should be the labels, listed in the requested order.
II, IV, I, III, V
(II: 9.10, IV: 8.00, I: 7.80, III: 6.46, V: 6.08)

a = CN1CC[C@](O)(C#Cc2cccc(-c3ccc4ncnc(N5CCC5)c4n3)c2)C1=O
b = CN1CC[C@@](O)(C#Cc2cccc(-c3cnc4ncnc(N)c4n3)c2)C1=O
# query: argmin of pIC50 over a and b I would appreciate it if you answered with the label of your choice.
a
